# System: Liver
# RUN_DESCRIPTION: Biodistribution in liver of C57BL/6 mouse bearing mouse B16-F0 cells at 0.74 to 0.92 MBq, iv after 3 hrs
# Format: ADME, organism-based
# ASSAY_CONDITIONS: in vivo
Record 1 whenever Drug uptake is at 3 % ID/g or higher; record -1 when lower.

>  <SMI>
CCN(CC)CCNC(=O)c1nc2cc([125I])ccc2[nH]1.Cl.Cl

>  <CLASS_NAME>
1

$$$$
>  <SMI>
CCN(CC)CCNC(=O)c1cc2c([125I])cccc2s1.Cl

>  <CLASS_NAME>
-1

$$$$
>  <SMI>
CCN(CC)CCNC(=O)c1cn2cc([125I])ccc2n1.Cl.Cl

>  <CLASS_NAME>
-1

$$$$
>  <SMI>
CCN(CC)CCNC(=O)c1ccc2cncc([125I])c2n1.Cl.Cl

>  <CLASS_NAME>
-1

$$$$
>  <SMI>
CCN(CC)CCNC(=O)c1c[nH]c2ccc([125I])cc2c1=O.Cl.Cl

>  <CLASS_NAME>
-1

$$$$
>  <SMI>
CCN(CC)CCNC(=O)c1cc2c([125I])cccc2cn1.Cl.Cl

>  <CLASS_NAME>
-1

$$$$
>  <SMI>
CCN(CC)CCNC(=O)c1cnc2cc([125I])ccc2n1.Cl.Cl

>  <CLASS_NAME>
1

$$$$
>  <SMI>
CCN(CC)CCNC(=O)c1cc2cc([125I])ccc2o1.Cl

>  <CLASS_NAME>
-1

$$$$
>  <SMI>
CCN(CC)CCNC(=O)c1cc2cc([125I])ccc2[nH]1.Cl

>  <CLASS_NAME>
1

$$$$
>  <SMI>
CCN(CC)CCNC(=O)c1ccc2cc([125I])ccc2n1.Cl.Cl

>  <CLASS_NAME>
1

$$$$

Now take the following molecule into account.
Ask: Evaluate "CCN(CC)CCNC(=O)c1ccc2cc([125I])ccc2c1.Cl" : Drug uptake at minimum 3 % ID/g?
Result: 1
